# credit: PubChem BioAssay AID588819

# System: Muscarinic acetylcholine receptor M1 (Homo sapiens) (UniProt P11229)
# Sequence (P11229 whole entry, looked up): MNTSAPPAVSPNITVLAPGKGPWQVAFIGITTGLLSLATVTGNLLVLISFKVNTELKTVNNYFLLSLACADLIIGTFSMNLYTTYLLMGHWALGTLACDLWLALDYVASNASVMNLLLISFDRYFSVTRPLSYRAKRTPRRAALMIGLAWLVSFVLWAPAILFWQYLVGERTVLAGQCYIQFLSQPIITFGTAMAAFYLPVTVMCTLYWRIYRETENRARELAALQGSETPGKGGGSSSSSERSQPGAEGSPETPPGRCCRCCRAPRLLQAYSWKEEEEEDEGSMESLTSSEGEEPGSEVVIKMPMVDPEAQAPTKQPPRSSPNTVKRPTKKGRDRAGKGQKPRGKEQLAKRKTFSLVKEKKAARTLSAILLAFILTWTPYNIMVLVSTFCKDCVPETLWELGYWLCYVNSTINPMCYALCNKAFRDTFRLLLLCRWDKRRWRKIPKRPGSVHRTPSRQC
# Protocol Description: CHRM1 PAMs potentiating acetylcholine calcium signal – CHO-K1 cells, Fluo-8 calcium fluorescence, 1536-well, primary screen (AID 588819)
# Setup Conditions: CHO-K1 hM1, Fluo-8 calcium fluorescence, ACh EC20; at 3 µM; 0% = ACh EC20, 100% = maximal ACh
In all, about 360,000 compounds went through this assay and about 320 (0.089%) were called active. Rule as the data show it: active = activation above about 19% (passing the limit was not always enough); inactive = the rest. For the sample, actives were picked, then their nearest neighbours and some compounds at random.
The reply should be one of these categories: YES (active), NO (inactive)

Check out these entries, answers already filled in.
compound=Cc1ccc2nc(SCC(=O)N3CCN(c4ccccc4)CC3)nc(=O)n2c1 category_label=NO
compound=CC(C)c1nc2ccc(C(=O)O)cc2[nH]1 category_label=YES
compound=CCCCN(CC(=O)NC(C)(C)C)C(=O)C(=O)Nc1ccc2c(c1)OCCO2 category_label=NO
compound=CCN(CC)C(=O)CSc1ncnc2c1cnn2-c1ccccc1 category_label=NO
compound="Cc1ccccc1S(=O)(=O)NC(=O)C1(C)CCN1C(=O)Cc1ccc(Cl)cc1Cl (stereo unspecified)" category_label=NO
compound="CCOC(=O)N1CCN(c2c(NCCCN3CCCC(C)C3)c(=O)c2=O)CC1 (stereo unspecified)" category_label=NO
compound="O=C(NCC(O)c1nc2ccccc2[nH]1)c1ccc(Br)cc1 (stereo unspecified)" category_label=NO
compound=CCCC(=O)N1CCN(c2nnc(-c3ccc(C)cc3)c3ccccc23)CC1 category_label=NO

-- ask Record request — test call for OC(c1nc2ccc(F)cc2[nH]1)C(O)c1nc2ccc(F)cc2[nH]1 (stereo unspecified)
-- reply NO

-- ask Record request — test call for CC(Sc1ncnc2c1cnn2-c1ccccc1)C(=O)Nc1ccc(N2CCOCC2)cc1 (stereo unspecified)
-- reply YES
